- target_of_assay: Human MC1R (Homo sapiens)
- Construct: endogenous in cells
- Sequence (Q01726 whole entry): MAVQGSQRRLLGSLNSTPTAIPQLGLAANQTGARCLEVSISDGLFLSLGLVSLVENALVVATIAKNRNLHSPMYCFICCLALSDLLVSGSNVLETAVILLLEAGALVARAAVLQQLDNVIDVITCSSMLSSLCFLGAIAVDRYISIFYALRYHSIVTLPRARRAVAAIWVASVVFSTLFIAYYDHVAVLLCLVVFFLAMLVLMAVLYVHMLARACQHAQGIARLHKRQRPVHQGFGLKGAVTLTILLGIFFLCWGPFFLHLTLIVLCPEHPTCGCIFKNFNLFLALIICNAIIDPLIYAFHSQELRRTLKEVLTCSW
- method: MCR agonist measurement (cAMP measurement), human MC1R agonist activity in human melanoma cell line HBL
- applied_conditions: HBL cells, 37° C. for 30 minutes, intracellular cAMP by fluorescence method
pEC50: −log10 of the molar value.
Each item that follows carries a reported pEC50.

[
  {
    "compound": "COC[C@H]1CN(C(=O)[C@]2(F)CN(c3ccc(C)nn3)C[C@H]2c2ccc(OC)cc2)C[C@@H]1c1ccc(C(F)(F)F)cc1N1CCC(C(=O)O)CC1",
    "pEC50": 7.62
  },
  {
    "compound": "COc1ccc([C@@H]2CN(C(C)(C)C)C[C@@]2(F)C(=O)N2C[C@H](C(=O)O)[C@@H](c3ccc(C(F)(F)F)cc3N3CCC(C(=O)OC(C)(C)C)CC3)C2)cc1",
    "pEC50": 7.05
  },
  {
    "compound": "COc1ccc([C@@H]2CN(C(C)(C)C)C[C@@]2(F)C(=O)N2CCC(c3ccc(C(F)(F)F)cc3[C@H]3CC[C@H](C(=O)O)CC3)CC2)cc1",
    "pEC50": 7.22
  },
  {
    "compound": "COc1ccc([C@@H]2CN(C(C)(C)C)C[C@@]2(F)C(=O)N2CCC(C#N)(c3ccc(C(F)(F)F)cc3-c3ccc(C(=O)O)cc3)CC2)cc1",
    "pEC50": 7.25
  },
  {
    "compound": "COc1ccc([C@@H]2CN(C3CCCC3)C[C@@]2(F)C(=O)N2CCCC(c3ccc(C(F)(F)F)cc3N3CCC(C(=O)O)CC3)C2)cc1 (single isomer, unassigned) [Example 291]",
    "pEC50": 6.13
  }
]

----------
- target_of_assay: human MC4R (Homo sapiens, UniProt P32245)
- Sequence (P32245 whole entry): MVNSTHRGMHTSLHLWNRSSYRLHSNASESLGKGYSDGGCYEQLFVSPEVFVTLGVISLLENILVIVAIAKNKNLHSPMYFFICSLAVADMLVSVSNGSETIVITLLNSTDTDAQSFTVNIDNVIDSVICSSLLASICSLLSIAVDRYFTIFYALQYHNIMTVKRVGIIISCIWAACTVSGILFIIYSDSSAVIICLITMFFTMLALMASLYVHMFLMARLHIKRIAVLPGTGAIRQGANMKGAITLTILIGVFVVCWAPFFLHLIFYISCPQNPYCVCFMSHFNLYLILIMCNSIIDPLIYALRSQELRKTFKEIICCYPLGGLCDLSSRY
- method: human MC4R agonist activity
pEC50: −log10 of the molar value.
metric_name: pEC50

[
  {
    "compound": "COC[C@@H]1C[C@@H](c2ccc(F)cc2N2CCC(C(=O)O)CC2)CN1C(=O)[C@]1(F)CN([C@H]2CC[C@H](OC)CC2)C[C@H]1c1ccc(OC)cc1.Cl.Cl [Example 147, dihydrochloride]",
    "metric_name": "pEC50",
    "numeric_value": 6.47
  }
]

----------
- target_of_assay: Human MC1R (Homo sapiens)
- Construct: endogenous in cells
- method: MCR agonist measurement (cAMP measurement), human MC1R agonist activity in human melanoma cell line HBL
- applied_conditions: HBL cells, 37° C. for 30 minutes, intracellular cAMP by fluorescence method
Kindly apply the following: MET if EC50 is less than 0.01 µM, NOT MET in every other case.

[
  {
    "molecule": "COC[C@H]1CN(C(=O)[C@]2(F)CN(C3CCCC3)C[C@H]2c2ccc(OC)cc2)C[C@@H]1c1ccc(C(F)(F)F)cc1N1CCC(C(=O)N(C)CC(=O)O)CC1",
    "qualitative_label": "MET"
  },
  {
    "molecule": "COc1ccc([C@@H]2CN(C3CCOCC3)C[C@@]2(F)C(=O)N2CC[C@@H](c3ccc(C(F)(F)F)cc3N3CCC(C(=O)O)CC3)C2)cc1",
    "qualitative_label": "NOT MET"
  },
  {
    "molecule": "COc1ccc([C@@H]2CN(C(C)(C)C)C[C@@]2(F)C(=O)N2CCC(c3ccc(C(F)(F)F)cc3OCCCC(=O)NS(C)(=O)=O)CC2)cc1",
    "qualitative_label": "NOT MET"
  },
  {
    "molecule": "COC[C@@H]1C[C@@H](c2ccc(C(F)(F)F)cc2N2CCC(C(=O)O)CC2)CN1C(=O)[C@]1(F)CN(C2CCCC2)C[C@H]1c1ccc(OC)cc1",
    "qualitative_label": "MET"
  },
  {
    "molecule": "COc1ccc([C@@H]2CN(C(C)(C)C)C[C@@]2(F)C(=O)N2C[C@H](C(=O)N(C)C)[C@@H](c3ccc(C(F)(F)F)cc3N3CCC(C(=O)O)CC3)C2)cc1.Cl.Cl [Example 226, dihydrochloride]",
    "qualitative_label": "NOT MET"
  },
  {
    "molecule": "COC[C@H]1CN(C(=O)[C@]2(F)CN([C@H]3CC[C@H](OC)CC3)C[C@H]2c2ccc(OC)cc2)C[C@@H]1c1ccc(C(F)(F)F)cc1N1CCC(C(=O)N(C)C)CC1",
    "qualitative_label": "MET"
  },
  {
    "molecule": "COc1ccc([C@@H]2CN(C(C)(C)CO)C[C@@]2(F)C(=O)N2CCC(c3ccc(C(F)(F)F)cc3N3CCC(C(=O)O)CC3)CC2)cc1",
    "qualitative_label": "NOT MET"
  },
  {
    "molecule": "COC[C@H]1CN(C(=O)[C@]2(F)CN(C3CCOCC3)C[C@H]2c2ccc(OC)cc2)C[C@@H]1c1ccc(C(F)(F)F)cc1N1CCC(C(=O)O)CC1",
    "qualitative_label": "NOT MET"
  },
  {
    "molecule": "CCO[C@H]1CC[C@H](N2C[C@@H](c3ccc(OC)cc3)[C@](OC)(C(=O)N3C[C@H](COC)[C@@H](c4ccc(C(F)(F)F)cc4N4CCC(C(=O)O)CC4)C3)C2)CC1",
    "qualitative_label": "MET"
  },
  {
    "molecule": "CCO[C@H]1CC[C@H](N2C[C@@H](c3ccc(OC)cc3)[C@](OC)(C(=O)N3C[C@H](c4ccc(C(F)(F)F)cc4N4CCC(C(=O)O)CC4)[C@@](F)(COC)C3)C2)CC1",
    "qualitative_label": "MET"
  },
  {
    "molecule": "COc1ccc([C@@H]2CN(C3CCCC3)C[C@@]2(F)C(=O)N2CC(c3ccc(C(F)(F)F)cc3N3CCC(C(=O)O)CC3)C(F)(F)C2)cc1 (single isomer, unassigned) [Example 293]",
    "qualitative_label": "NOT MET"
  }
]

Origin of values: patent US9981960B2
